Entry source: patent US20240342138A1

- Experiment: Biodistribution after oral administration
- Format: in vivo, Sprague-Dawley Rats
- Settings: male, Sprague-Dawley, rat; Stomach; 2 hours; 75 mg/kg oral; read-out: Mean plasma/tissue concentration
Readout Label: concentration at 2 h
# do not omit the unit; it follows the number

### Prompt Tell me the measured concentration at 2 h of "COc1ccccc1-c1nc(CNC(=O)c2ccccc2OC(F)F)n[nH]1" , please.
### Response 41500 ng/g

----------
- Experiment: Biodistribution after oral administration
- Type: in vivo, Sprague-Dawley Rats
- Settings: male, Sprague-Dawley, rat; Adipose tissue; 8 hours; 75 mg/kg oral; read-out: Ratio (tissue to plasma)
Readout Label: Kp at 8 h
Give the value as a plain number.

### Prompt Tell me the measured Kp at 8 h of "COc1ccccc1-c1nc(CNC(=O)c2ccccc2OC(F)F)n[nH]1" , please.
### Response 0.57

----------
- Experiment: Biodistribution after oral administration
- Format: in vivo, Sprague-Dawley Rats
- Settings: male, Sprague-Dawley, rat, lung; Lungs; 8 hours; 75 mg/kg oral; read-out: Mean plasma/tissue concentration
Readout Label: concentration at 8 h (ng/g)
The response must be a number in ng/g with no trailing unit.

### Prompt Tell me the measured concentration at 8 h of "COc1ccccc1-c1nc(CNC(=O)c2ccccc2OC(F)F)n[nH]1" , please.
### Response 78.2

----------
- Experiment: Biodistribution after oral administration
- Format: in vivo, Sprague-Dawley Rats
- Settings: male, Sprague-Dawley, rat; Skeletal Muscle; 2 hours; 75 mg/kg oral; read-out: Ratio (tissue to plasma)
Readout Label: Kp at 2 h
Give the value as a plain number.

### Prompt Tell me the measured Kp at 2 h of COc1ccccc1-c1nc(CNC(=O)c2ccccc2OC(F)F)n[nH]1 [Compound 1] , please.
### Response 0.37

----------
- Experiment: Biodistribution after oral administration
- Assay type: in vivo, Sprague-Dawley Rats
- Settings: male, Sprague-Dawley, rat; Pancreas; 2 hours; 75 mg/kg oral; read-out: Mean plasma/tissue concentration
Readout Label: concentration at 2 h (ng/g)
The response must be a number in ng/g with no trailing unit.

### Prompt Tell me the measured concentration at 2 h of COc1ccccc1-c1nc(CNC(=O)c2ccccc2OC(F)F)n[nH]1 [Compound 1] , please.
### Response 2740

----------
- Experiment: Biodistribution after oral administration
- Assay type: in vivo, Sprague-Dawley Rats
- Settings: male, Sprague-Dawley, rat; Small intestine; 8 hours; 75 mg/kg oral; read-out: Ratio (tissue to plasma)
Readout Label: Kp at 8 h
Give the value as a plain number.

### Prompt Tell me the measured Kp at 8 h of COc1ccccc1-c1nc(CNC(=O)c2ccccc2OC(F)F)n[nH]1 [Compound 1] , please.
### Response 0.9

----------
- Experiment: Biodistribution after oral administration
- Format: in vivo, Sprague-Dawley Rats
- Settings: male, Sprague-Dawley, rat; Brain; 0.25 hours; 75 mg/kg oral; read-out: Ratio (tissue to plasma)
Readout Label: Kp at 0.25 h
Give the value as a plain number.

### Prompt Tell me the measured Kp at 0.25 h of COc1ccccc1-c1nc(CNC(=O)c2ccccc2OC(F)F)n[nH]1 [Compound 1] , please.
### Response 0.22

----------
- Experiment: Biodistribution after oral administration
- Type: in vivo, Sprague-Dawley Rats
- Settings: male, Sprague-Dawley, rat; Skeletal Muscle; 8 hours; 75 mg/kg oral; read-out: Mean plasma/tissue concentration
Readout Label: concentration at 8 h (ng/g)
The response must be a number in ng/g with no trailing unit.

### Prompt Tell me the measured concentration at 8 h of "COc1ccccc1-c1nc(CNC(=O)c2ccccc2OC(F)F)n[nH]1" , please.
### Response 316

----------
- Experiment: Biodistribution after oral administration
- Assay type: in vivo, Sprague-Dawley Rats
- Settings: male, Sprague-Dawley, rat; Heart; 0.25 hours; 75 mg/kg oral; read-out: Ratio (tissue to plasma)
Readout Label: Kp at 0.25 h
Give the value as a plain number.

### Prompt Tell me the measured Kp at 0.25 h of "COc1ccccc1-c1nc(CNC(=O)c2ccccc2OC(F)F)n[nH]1" , please.
### Response 0.53

----------
- Experiment: Biodistribution after oral administration
- Assay type: in vivo, Sprague-Dawley Rats
- Settings: male, Sprague-Dawley, rat; Spleen; 8 hours; 75 mg/kg oral; read-out: Mean plasma/tissue concentration
Readout Label: concentration at 8 h (ng/g)
The response must be a number in ng/g with no trailing unit.

### Prompt Tell me the measured concentration at 8 h of "COc1ccccc1-c1nc(CNC(=O)c2ccccc2OC(F)F)n[nH]1" , please.
### Response 121

----------
- Experiment: Biodistribution after oral administration
- Type: in vivo, Sprague-Dawley Rats
- Settings: male, Sprague-Dawley, rat; Adipose tissue; 0.25 hours; 75 mg/kg oral; read-out: Ratio (tissue to plasma)
Readout Label: Kp at 0.25 h
Give the value as a plain number.

### Prompt Tell me the measured Kp at 0.25 h of "COc1ccccc1-c1nc(CNC(=O)c2ccccc2OC(F)F)n[nH]1" , please.
### Response 0.54

----------
- Experiment: Biodistribution after oral administration
- Format: in vivo, Sprague-Dawley Rats
- Settings: male, Sprague-Dawley, rat; Small intestine; 2 hours; 75 mg/kg oral; read-out: Ratio (tissue to plasma)
Readout Label: Kp at 2 h

### Prompt Tell me the measured Kp at 2 h of COc1ccccc1-c1nc(CNC(=O)c2ccccc2OC(F)F)n[nH]1 [Compound 1] , please.
### Response 9.53

----------
- Experiment: Biodistribution after oral administration
- Type: in vivo, Sprague-Dawley Rats
- Settings: male, Sprague-Dawley, rat; Heart; 8 hours; 75 mg/kg oral; read-out: Ratio (tissue to plasma)
- Procedure: Male Sprague-Dawley Rats (total of 6 animals) 6 to 8 weeks of age (210-227 g) was used in this biodistribution study. Compound 1 was dosed at 75 mg/kg to all animals through oral route of administration at a 10 ml/kg dose volume. […] Heart, lung, liver, kidney, stomach, small intestine, large intestine, skeletal muscle, brain, spleen, pancreas and adipose were harvested while blood was processed to plasma for bioanalytical quantification of Compound 1. […]
Readout Label: Kp at 8 h
Give the value as a plain number.

### Prompt Tell me the measured Kp at 8 h of "COc1ccccc1-c1nc(CNC(=O)c2ccccc2OC(F)F)n[nH]1" , please.
### Response 0.78

----------
- Experiment: Biodistribution after oral administration
- Assay type: in vivo, Sprague-Dawley Rats
- Settings: male, Sprague-Dawley, rat; Brain; 0.25 hours; 75 mg/kg oral; read-out: Mean plasma/tissue concentration
Readout Label: concentration at 0.25 h
# do not omit the unit; it follows the number

### Prompt Tell me the measured concentration at 0.25 h of "COc1ccccc1-c1nc(CNC(=O)c2ccccc2OC(F)F)n[nH]1" , please.
### Response 624 ng/g

----------
- Experiment: Biodistribution after oral administration
- Format: in vivo, Sprague-Dawley Rats
- Settings: male, Sprague-Dawley, rat, lung; Lungs; 8 hours; 75 mg/kg oral; read-out: Ratio (tissue to plasma)
Readout Label: Kp at 8 h
Give the value as a plain number.

### Prompt Tell me the measured Kp at 8 h of "COc1ccccc1-c1nc(CNC(=O)c2ccccc2OC(F)F)n[nH]1" , please.
### Response 0.94

----------
- Experiment: Biodistribution after oral administration
- Assay type: in vivo, Sprague-Dawley Rats
- Settings: male, Sprague-Dawley, rat; Small intestine; 0.25 hours; 75 mg/kg oral; read-out: Mean plasma/tissue concentration
Readout Label: concentration at 0.25 h (ng/g)
The response must be a number in ng/g with no trailing unit.

### Prompt Tell me the measured concentration at 0.25 h of COc1ccccc1-c1nc(CNC(=O)c2ccccc2OC(F)F)n[nH]1 [Compound 1] , please.
### Response 16700

----------
- Experiment: Biodistribution after oral administration
- Format: in vivo, Sprague-Dawley Rats
- Settings: male, Sprague-Dawley, rat; Skeletal Muscle; 2 hours; 75 mg/kg oral; read-out: Mean plasma/tissue concentration
Readout Label: concentration at 2 h (ng/g)
The response must be a number in ng/g with no trailing unit.

### Prompt Tell me the measured concentration at 2 h of "COc1ccccc1-c1nc(CNC(=O)c2ccccc2OC(F)F)n[nH]1" , please.
### Response 734

----------
- Experiment: Biodistribution after oral administration
- Assay type: in vivo, Sprague-Dawley Rats
- Settings: male, Sprague-Dawley, rat; Kidney; 2 hours; 75 mg/kg oral; read-out: Mean plasma/tissue concentration
Readout Label: concentration at 2 h
# do not omit the unit; it follows the number

### Prompt Tell me the measured concentration at 2 h of "COc1ccccc1-c1nc(CNC(=O)c2ccccc2OC(F)F)n[nH]1" , please.
### Response 2520 ng/g

----------
- Experiment: Biodistribution after oral administration
- Format: in vivo, Sprague-Dawley Rats
- Settings: male, Sprague-Dawley, rat; Skeletal Muscle; 8 hours; 75 mg/kg oral; read-out: Ratio (tissue to plasma)
Readout Label: Kp at 8 h
Give the value as a plain number.

### Prompt Tell me the measured Kp at 8 h of "COc1ccccc1-c1nc(CNC(=O)c2ccccc2OC(F)F)n[nH]1" , please.
### Response 3.81
